Cited source: patent US20090137577A1

biological target: mGluR2 receptor (metabotropic glutamate receptor 2) (Homo sapiens); assay: mGluR2 potentiator screen (FLIPR, EC10-EC20 glutamate challenge); conditions: geometric mean; read-out: mGluR 2 EC50 (geometric mean)
Sequence (Q14416 19-872, species assumed): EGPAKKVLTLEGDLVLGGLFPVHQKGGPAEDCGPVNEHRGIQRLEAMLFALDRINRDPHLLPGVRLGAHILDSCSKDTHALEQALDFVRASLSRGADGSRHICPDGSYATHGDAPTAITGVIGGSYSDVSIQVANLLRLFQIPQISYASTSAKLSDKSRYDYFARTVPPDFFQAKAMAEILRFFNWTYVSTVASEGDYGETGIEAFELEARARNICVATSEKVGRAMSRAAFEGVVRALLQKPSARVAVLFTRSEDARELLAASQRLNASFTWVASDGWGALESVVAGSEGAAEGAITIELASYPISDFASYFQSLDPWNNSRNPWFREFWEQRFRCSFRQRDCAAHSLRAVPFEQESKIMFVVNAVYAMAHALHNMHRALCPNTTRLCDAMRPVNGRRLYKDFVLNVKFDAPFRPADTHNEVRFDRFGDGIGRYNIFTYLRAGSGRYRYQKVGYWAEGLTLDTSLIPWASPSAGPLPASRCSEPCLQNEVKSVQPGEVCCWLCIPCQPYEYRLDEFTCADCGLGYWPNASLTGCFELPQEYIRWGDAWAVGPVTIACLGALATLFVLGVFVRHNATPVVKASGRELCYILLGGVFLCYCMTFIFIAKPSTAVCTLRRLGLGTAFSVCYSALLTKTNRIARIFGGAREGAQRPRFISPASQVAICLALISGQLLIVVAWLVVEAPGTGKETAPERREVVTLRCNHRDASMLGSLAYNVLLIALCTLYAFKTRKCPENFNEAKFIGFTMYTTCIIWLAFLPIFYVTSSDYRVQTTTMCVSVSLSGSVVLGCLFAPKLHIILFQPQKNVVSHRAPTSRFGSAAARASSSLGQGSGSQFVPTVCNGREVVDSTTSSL
valueKind: EC50 (nM)

Solved entries:
Quick check: EC50 of `Cc1ccccc1COc1ccc(CN2C[C@@H](C)OC2=O)cc1` ?
89

Quick check: EC50 of CC1CN(Cc2ccc(OC[C@@H](C)c3ccccc3)cc2)C(=O)O1 (stereo partly shown) ?
48.3

Quick check: EC50 of `C[C@@H]1CN(Cc2ccc(-c3ccc(Cl)cc3F)nc2)C(=O)O1` ?
424

Quick check: EC50 of `C[C@H]1[C@@H](c2ccccc2)OC(=O)N1Cc1ccc(OCc2ccccc2)cc1` ?
467

Quick check: EC50 of CC1CN(Cc2ccc(OC(C)Cc3ccccc3)cc2)C(=O)O1 (stereo not shown) ?
40.7

(a) O=C1OC(c2ccccc2)CN1Cc1ccc(OCc2cccnc2)cc1 (stereo not shown)
(b) CC(Oc1ccc(CN2CC(c3ccccc3)OC2=O)cc1)C1CCCCC1 (stereo not shown)
(c) COc1ccc(F)c(-c2ccc(CN3C[C@@H](C)OC3=O)cn2)c1
(d) Cc1ccc(Cl)cc1-c1ccc(CN2C[C@@H](C)OC2=O)cc1
Which order do these items take when sorted by rising EC50? List them. Output the labels ranked as instructed.
d, b, a, c

---

biological target: mGluR2 receptor (metabotropic glutamate receptor 2) (Homo sapiens); experiment: mGluR2 potentiator screen (FLIPR, EC10-EC20 glutamate challenge); conditions: geometric mean; read-out: mGluR 2 EC50 (geometric mean)
valueKind: EC50 (nM)

Solved entries:
Quick check: EC50 of C[C@@H]1CN(Cc2ccc(-c3ccc(Cl)cc3Cl)nc2)C(=O)O1 [Example 269] ?
518

Quick check: EC50 of CCC(COc1ccc(CN2CC(C)OC2=O)cc1)(c1ccccc1)N(C)C (stereo not drawn) [Example 141] ?
995

Quick check: EC50 of COc1cccc(F)c1-c1ccc(CN2C[C@@H](C)OC2=O)cc1 [Example 172] ?
31.4

Quick check: EC50 of CC1CN(Cc2ccc(OCc3ccccc3F)cc2)C(=O)O1 (stereo not drawn) [Example 112] ?
138

(P) C[C@@H]1CN(Cc2ccc(-c3ccc(Cl)cc3OC(F)(F)F)cc2)C(=O)O1 [Example 316]
(Q) CC1CN(Cc2ccc(OCc3cccc(C#N)c3)cc2)C(=O)O1 (stereo not drawn) [Example 129]
Name the one with the greater EC50 value, either P or Q as given. Lab note: record the label of whichever item you select.
Q

(a) COc1ccc(F)c(-c2ccc(CN3C[C@@H](C)OC3=O)cc2)c1 [Example 240]
(b) Cc1cc(F)ccc1-c1ccc(CN2C[C@@H](C)OC2=O)cc1 [Example 159]
Name the one with the greater EC50 value, either a or b as given. Lab note: record the label of whichever item you select.
a
(a: 120 nM, b: 13.9 nM)

---

biological target: UniProt Q14416; assay: mGluR2 potentiator screen (FLIPR, EC10-EC20 glutamate challenge); conditions: geometric mean; read-out: mGluR 2 EC50 (geometric mean);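 also: HEK cells stably expressing human mGluR2 with GL15 G protein, Fluo-4 calcium fluorescence read on FLIPR, compounds added before an EC10-EC20 glutamate challenge to detect potentiation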
valueKind: EC50 (nM)

Quick check: EC50 of CC(Oc1ccc(CN2CCOC2=O)cc1)C1CCCCC1 (centres unmarked) ?
677

(P) COc1ccc(C(C)C)cc1-c1ccc(CN2C[C@@H](C)OC2=O)cn1
(Q) CC1(C)CN(Cc2ccc(-c3ccc(F)cc3F)cc2)C(=O)O1
(R) CC1CN(Cc2ccc(OC(C)c3ccccc3)cc2)C(=O)O1 (centres unmarked)
Put the entries in order of EC50, starting with the largest number. Output the labels ranked as instructed.
P, R, Q
(P: 1470 nM, R: 151 nM, Q: 18 nM)
